# Test system: OVCAR-8 ovarian
# assay-info: NCI tumour cell line growth inhibition, 48 h; in the data active means GI50 below about 0.43 µM; inactive means the rest
Possible outcomes: Y for active, N for inactive

compound	system	answer-label
Nc1nc(Cl)cc2c1ncn2C1OC(CO)C(O)C1O (stereo not drawn)	OVCAR-8 ovarian	N
Cc1c(Br)cccc1NC(=O)c1sc2nc3c(cc2c1N)CN(Cc1ccccc1)CC3	OVCAR-8 ovarian	Y
CC([C@H]1CCC2C3CCC4C(=O)C(NC=O)=CC[C@]4(C)C3CC[C@@]21C)N(C)C (stereo partly drawn)	OVCAR-8 ovarian	N

###

# Test system: SK-MEL-5 melanoma
# assay-info: NCI tumour cell line growth inhibition, 48 h
Where a SMILES comes first, the peptide text is derived from it. [ ]: non-standard residue; d: D form. The star is where a group is joined. ξ: configuration not given here. 4Abz = Nc1ccc(C(=O)O)cc1; ξL = CC(C)CC(N)C(=O)O; NHOH = ON*

molecule	system	TGI
CCCCC(=O)Nc1ccc2cc(C(=O)OC)c(=O)[nH]c2n1	SK-MEL-5 melanoma	> 100 µM
C=CCn1c(-c2ccc(N=NNc3ccc(-c4n[nH]c(=S)n4CC=C)cc3)cc2)n[nH]c1=S	SK-MEL-5 melanoma	3.79 µM
CN(CCN(C)Cc1ccc(Cl)c(Cl)c1)CCN1CCCC1	SK-MEL-5 melanoma	29.1 µM
CC(=O)OC1CC[C@@]2(C)C(CC(OC3OC(CO)C(O)C(O)C3O)[C@]3(C)C2CCC24CC23CC[C@H]4C(C)CC(O)[C@@H](O)C(C)(C)O)C1(C)C (stereo partly drawn)	SK-MEL-5 melanoma	15.9 µM
COc1cc2[nH]c(=O)[nH]c2c2c(C)c[nH]c12	SK-MEL-5 melanoma	> 100 µM
C/C(=C/CC[C@](C)(OC1OC(CO)C(O)C(O)C1OC1OC(C)C(O)C(O)C1O)[C@H]1CC[C@]2(C)[C@@H]1CC[C@@H]1[C@@]3(C)CC[C@H](O)C(C)(C)[C@@H]3C[C@H](O)[C@]12C)CO (stereo partly drawn)	SK-MEL-5 melanoma	> 100 µM
COc1cc2c3c(c1OC)C1(C=CC(=O)C=C1)CC3N(C(=O)OC(C)(C)C(Cl)(Cl)Cl)CC2 (stereo not drawn)	SK-MEL-5 melanoma	20.7 µM
CCCc1c(OC)c(O)c2c(=O)cc(OC)c3c4c(OC)cc(=O)c5c(O)c(OC)c(CCC)c(c1c23)c54	SK-MEL-5 melanoma	11.5 µM
O=C(CSCC(=O)N/N=C/c1ccc(F)cc1)N/N=C/c1ccc(F)cc1	SK-MEL-5 melanoma	> 100 µM
N.N.NCCCCN.O=C([O-])CCl.O=C([O-])CCl.O=C([O-])CCl.O=C([O-])CCl.[Pt+4].[Pt+4]	SK-MEL-5 melanoma	> 50 µM
CC(C)CC(NC(=O)[C@@H]1CCCN1C(=O)CNC(=O)c1ccc(N)cc1)C(=O)N[C@H](C)C(=O)NO (stereo partly drawn) (H-[4Abz]GP[ξL][dA]-{NHOH})	SK-MEL-5 melanoma	> 100 µM
COc1cc(C(C)(C)C)c(OC(=O)/C=C/C(=O)O/C=C/[N+](=O)[O-])c(C(C)(C)C)c1	SK-MEL-5 melanoma	> 100 µM
COc1ccc2c(c1)C(CCN)C(=O)N2 (stereo not drawn)	SK-MEL-5 melanoma	> 100 µM
O=C(O)C(C1NCCS1)N1Cc2ccccc2C1 (stereo not drawn)	SK-MEL-5 melanoma	> 100 µM
O=c1cc(N2CCOCC2)oc2c(-c3ccccc3)cccc12	SK-MEL-5 melanoma	22 µM
COc1ccc(-n2cc(-c3ccc(Cl)cc3)[nH]c2=S)cc1Cl	SK-MEL-5 melanoma	> 100 µM
C=CCCCN1C(=O)C2C3c4ccccc4C(C=O)(c4ccccc43)C2C1=O (stereo not drawn)	SK-MEL-5 melanoma	23.5 µM
Cc1cc(S(=O)(=O)Nc2nc(N)n(-c3ccccc3)n2)c(S)cc1Cl	SK-MEL-5 melanoma	> 100 µM
